Reported DC50 values for the following compounds.
- Assayed system: STAT3 (Homo sapiens)
- Construct: expressed in transfected cells; host or cells: A549
- Method notes: STAT3 HiBiT degradation assay (Nano-Glo HiBiT lytic detection) in transfected A549 cells
- Type: cell-based
- Experimental conditions: 24 h compound incubation, read-out: STAT3 HiBIT A549 degradation 24 h: Average external-Abs DC50

Sample records with DC50:
Compound | Assayed system | Val
Cc1ncsc1-c1ccc([C@H](C)NC(=O)[C@@H]2C[C@@H](O)CN2C(=O)[C@@H](NC(=O)CCCc2cccc(OC[C@H](CCC(N)=O)NC(=O)[C@@H]3CCCN3C(=O)CNC(=O)c3cc4cc(C(=O)P(=O)(O)O)ccc4[nH]3)c2Cl)C(C)(C)C)cc1 [I-13] | STAT3 (Homo sapiens) | 10 to 100 nM
Cn1c(=O)n(C2CCC(=O)NC2=O)c2ccc(CCCc3cccc(OC[C@H](CCC(N)=O)NC(=O)[C@@H]4CC[C@@H]5CCCC[C@H](NC(=O)c6cc7cc(C(=O)P(=O)(O)O)ccc7[nH]6)C(=O)N54)c3Cl)cc21 (stereo partly shown) [I-27] | STAT3 (Homo sapiens) | > 1000 nM
Cc1ncsc1-c1ccc([C@H](C)NC(=O)[C@@H]2C[C@@H](O)CN2C(=O)[C@@H](NC(=O)CCCc2cccc(OC[C@H](CCC(N)=O)NC(=O)[C@@H]3CC[C@@H]4CCN(C(=O)C(F)(F)F)C[C@H](NC(=O)c5cc6cc(C(=O)P(=O)(O)O)ccc6[nH]5)C(=O)N43)c2Cl)C(C)(C)C)cc1 [I-66] | STAT3 (Homo sapiens) | < 10 nM

Let us move to another entry and its DC50.
Task: Record request: DC50 value, item Cc1ncsc1-c1ccc([C@H](C)NC(=O)[C@@H]2C[C@@H](O)CN2C(=O)[C@@H](NC(=O)CCCCc2cccc(OC[C@H](CCC(N)=O)NC(=O)[C@@H]3CC[C@@H]4CCCC[C@H](NC(=O)c5cc6cc(C(=O)P(=O)(O)O)ccc6[nH]5)C(=O)N43)c2F)C(C)(C)C)cc1 [I-3]
Output: < 10 nM

###

- Assayed system: STAT3 (Homo sapiens)
- Construct: expressed in transfected cells; host or cells: A549
- Method notes: STAT3 HiBiT degradation assay (Nano-Glo HiBiT lytic detection) in transfected A549 cells
- Assay type: cell-based
- Experimental conditions: 24 h compound incubation, read-out: STAT3 HiBIT A549 degradation 24 h: Average external-Abs DC50
- Method: Example 1. HiBiT Assay Protocol Compound preparation and Cell seeding: The transfected A549 cells were harvested from dish into cell culture medium and cell numbers counted. […] Detection: Plates were removed from incubators and equilibrated at room temperature for 15 minutes. […] 30 μL of Nano-Glo Hibit Lytic Detection reagent was added into each well to be detected. The plates were held at room temperature for 10 min followed by reading on EnSpire. […]
Catalogue of DC50 readings, one per entry.

Compound | Assayed system | DC50
Cn1c(=O)n(C2CCC(=O)NC2=O)c2ccc(CC[C@H]3CC[C@@H](C(=O)N4CC[C@H]5CC[C@@H](C(=O)N[C@@H](CCC(N)=O)c6nc7ccccc7s6)N5C(=O)[C@@H](NC(=O)c5cc6cc(C(=O)P(=O)(O)O)ccc6[nH]5)C4)CC3)cc21 (some centres unmarked) | STAT3 (Homo sapiens) | 10 to 100 nM
Cc1ncsc1-c1ccc([C@H](C)NC(=O)[C@@H]2C[C@@H](O)CN2C(=O)[C@@H](NC(=O)CCCc2cccc(OC[C@H](CCC(N)=O)NC(=O)[C@@H]3CCCN3C(=O)[C@H](C)NC(=O)c3cc4cc(C(=O)P(=O)(O)O)ccc4[nH]3)c2Cl)C(C)(C)C)cc1 | STAT3 (Homo sapiens) | 10 to 100 nM
C[C@H](NC(=O)[C@H](CCC(N)=O)NC(=O)[C@@H]1CC[C@@H]2CCN(C(=O)C[C@H]3CC[C@@H](Cc4ccc5c(c4)n(C)c(=O)n5C4CCC(=O)NC4=O)CC3)C[C@H](NC(=O)c3cc4cc(C(=O)P(=O)(O)O)ccc4[nH]3)C(=O)N21)c1ccc(S(C)(=O)=O)cc1 (some centres unmarked) | STAT3 (Homo sapiens) | 100 to 1000 nM
Cc1ncsc1-c1ccc([C@H](C)NC(=O)[C@@H]2C[C@@H](O)CN2C(=O)[C@@H](NC(=O)CCCCc2cccc(OC[C@H](CCC(N)=O)NC(=O)[C@@H]3CC[C@@H]4CCCC[C@H](NC(=O)c5cc6cc(C(=O)P(=O)(O)O)ccc6[nH]5)C(=O)N43)c2Cl)C(C)(C)C)cc1 | STAT3 (Homo sapiens) | < 10 nM
Cn1c(=O)n(C2CCC(=O)NC2=O)c2ccc(C[C@H]3CC[C@@H](CC(=O)N4CC[C@H]5CC[C@@H](C(=O)N[C@@H](CCC(N)=O)COc6ccc(S(C)(=O)=O)cc6)N5C(=O)[C@@H](NC(=O)c5cc6cc(C(=O)P(=O)(O)O)ccc6[nH]5)C4)CC3)cc21 (some centres unmarked) | STAT3 (Homo sapiens) | 100 to 1000 nM
Cn1c(=O)n(C2CCC(=O)NC2=O)c2ccc(C[C@H]3CC[C@@H](CC(=O)N4CC[C@H]5CC[C@@H](C(=O)NC6(CCC(N)=O)CC6)N5C(=O)[C@@H](NC(=O)c5cc6cc(C(=O)P(=O)(O)O)ccc6[nH]5)C4)CC3)cc21 (some centres unmarked) | STAT3 (Homo sapiens) | > 1000 nM
Cc1ncsc1-c1ccc(C2(NC(=O)[C@@H]3C[C@@H](O)CN3C(=O)[C@@H](NC(=O)CCCc3cccc(OC[C@H](CCC(N)=O)NC(=O)[C@@H]4Cc5cccc6c5N4C(=O)[C@@H](NC(=O)c4cc5cc(C(=O)P(=O)(O)O)ccc5[nH]4)CC6)c3Cl)C(C)(C)C)CC2)cc1 | STAT3 (Homo sapiens) | 10 to 100 nM

Continue with the next compound.
Task: If you can, please state the reported DC50 value of CCS(=O)(=O)c1ccc(CNC(=O)[C@H](CCC(N)=O)NC(=O)[C@@H]2CC[C@@H]3CCN(C(=O)C[C@H]4CC[C@@H](Cc5ccc6c(c5)n(C)c(=O)n6C5CCC(=O)NC5=O)CC4)C[C@H](NC(=O)c4cc5cc(C(=O)P(=O)(O)O)ccc5[nH]4)C(=O)N32)cc1 (some centres unmarked) .
Output: 10 to 100 nM

###

- Assayed system: STAT3 (Homo sapiens)
- Construct: expressed in transfected cells; host or cells: A549
- Method notes: STAT3 HiBiT degradation assay (Nano-Glo HiBiT lytic detection) in transfected A549 cells
- Format: cell-based
- Experimental conditions: 24 h compound incubation, read-out: STAT3 HiBIT A549 degradation 24 h: Average external-Abs DC50
# Lookup of reported DC50 keyed by entry

Past entries and their recorded results:
Molecule | Assayed system | DC50
Cc1ncsc1-c1ccc([C@H](C)NC(=O)[C@@H]2C[C@@H](O)CN2C(=O)[C@@H](NC(=O)CCCc2cccc(OC[C@H](CCC(N)=O)NC(=O)[C@@H]3CC[C@@H]4CCN(C(=O)c5cccc(F)c5)C[C@H](NC(=O)c5cc6cc(C(=O)P(=O)(O)O)ccc6[nH]5)C(=O)N43)c2Cl)C(C)(C)C)cc1 [I-60] | STAT3 (Homo sapiens) | 10 to 100 nM
CC(C)c1ccc(CNC(=O)[C@H](CCC(N)=O)NC(=O)[C@@H]2CC[C@@H]3CCN(C(=O)[C@H]4CC[C@@H](CCc5ccc6c(c5)n(C)c(=O)n6C5CCC(=O)NC5=O)CC4)C[C@H](NC(=O)c4cc5cc(C(=O)P(=O)(O)O)ccc5[nH]4)C(=O)N32)cc1F (stereo partly shown) [I-30] | STAT3 (Homo sapiens) | 10 to 100 nM
CNC(=O)CC[C@@H](C)NC(=O)[C@@H]1Cc2cc(CCCCCCc3ccc4c(c3)n(C)c(=O)n4C3CCC(=O)NC3=O)cc3c2N1C(=O)[C@@H](NC(=O)c1cc2cc(C(=O)P(=O)(O)O)ccc2[nH]1)CC3 (stereo partly shown) [I-22] | STAT3 (Homo sapiens) | > 1000 nM

Here's the next entry for you.
Task: What value of DC50 has been recorded for this entry: C[C@H](CCC(=O)N(C)C)NC(=O)[C@@H]1Cc2cc(CCCCCCc3ccc4c(c3)n(C)c(=O)n4C3CCC(=O)NC3=O)cc3c2N1C(=O)[C@@H](NC(=O)c1cc2cc(C(=O)P(=O)(O)O)ccc2[nH]1)CC3 (stereo partly shown) [I-21]
Output: > 1000 nM

###

- Assayed system: STAT3 (Homo sapiens, UniProt P40763)
- Construct: expressed in transfected cells; host or cells: A549
- Sequence (P40763 whole entry): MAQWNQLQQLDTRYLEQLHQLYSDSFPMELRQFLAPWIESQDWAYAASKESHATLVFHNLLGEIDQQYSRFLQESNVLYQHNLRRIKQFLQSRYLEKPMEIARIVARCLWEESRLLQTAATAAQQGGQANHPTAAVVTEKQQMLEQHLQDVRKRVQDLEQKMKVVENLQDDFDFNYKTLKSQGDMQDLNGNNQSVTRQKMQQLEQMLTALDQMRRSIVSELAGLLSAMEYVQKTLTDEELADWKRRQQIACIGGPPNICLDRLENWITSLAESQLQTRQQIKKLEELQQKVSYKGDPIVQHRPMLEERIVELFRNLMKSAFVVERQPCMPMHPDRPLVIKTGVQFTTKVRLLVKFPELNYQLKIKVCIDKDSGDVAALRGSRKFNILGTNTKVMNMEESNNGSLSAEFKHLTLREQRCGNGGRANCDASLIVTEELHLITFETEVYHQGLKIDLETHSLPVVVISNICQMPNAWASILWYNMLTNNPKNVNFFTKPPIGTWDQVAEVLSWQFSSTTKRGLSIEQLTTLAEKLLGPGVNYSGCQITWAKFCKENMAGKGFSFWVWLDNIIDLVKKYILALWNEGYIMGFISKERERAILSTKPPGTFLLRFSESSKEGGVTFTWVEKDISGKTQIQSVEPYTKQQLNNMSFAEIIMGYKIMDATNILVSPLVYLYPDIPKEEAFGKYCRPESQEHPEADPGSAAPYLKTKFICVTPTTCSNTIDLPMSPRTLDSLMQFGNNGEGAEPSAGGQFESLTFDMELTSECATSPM
- Method notes: STAT3 HiBiT degradation assay (Nano-Glo HiBiT lytic detection) in transfected A549 cells
- Assay type: cell-based
- Experimental conditions: 24 h compound incubation, read-out: STAT3 HiBIT A549 degradation 24 h: Average external-Abs DC50
Property name: DC50

Solved cases (3 shown):
Compound | Assayed system | DC50
Cn1c(=O)n(C2CCC(=O)NC2=O)c2ccc(NC[C@H]3CC[C@@H](C(=O)N4CC[C@H]5CC[C@@H](C(=O)N[C@@H](CCC(N)=O)C(=O)NCc6ccc(S(C)(=O)=O)cc6)N5C(=O)[C@@H](NC(=O)c5cc6cc(C(=O)P(=O)(O)O)ccc6[nH]5)C4)CC3)cc21 (some centres unmarked) | STAT3 (Homo sapiens, UniProt P40763) | 10 to 100 nM
CC(=O)N1CC[C@H]2CC[C@@H](C(=O)N[C@@H](CCC(N)=O)COc3cccc(CCCC(=O)N[C@H](C(=O)N4C[C@H](O)C[C@H]4C(=O)NC4(c5ccc(-c6scnc6C)cc5)CC4)C(C)(C)C)c3Cl)N2C(=O)[C@@H](NC(=O)c2cc3cc(C(=O)P(=O)(O)O)ccc3[nH]2)C1 | STAT3 (Homo sapiens, UniProt P40763) | 10 to 100 nM
CC(=O)N1CC[C@H]2CC[C@@H](C(=O)N[C@@H](CCC(N)=O)COc3cc(C)cc(CCCC(=O)N[C@H](C(=O)N4C[C@H](O)C[C@H]4C(=O)N[C@@H](C)c4ccc(-c5scnc5C)cc4)C(C)(C)C)c3F)N2C(=O)[C@@H](NC(=O)c2cc3cc(C(=O)P(=O)(O)O)ccc3[nH]2)C1 | STAT3 (Homo sapiens, UniProt P40763) | < 10 nM

Task: Query DC50 on STAT3 (Homo sapiens, UniProt P40763) for Cn1c(=O)n(C2CCC(=O)NC2=O)c2ccc(CCCCCc3cccc(OC[C@H](CCC(N)=O)NC(=O)[C@@H]4CC[C@@H]5CCCC[C@H](NC(=O)c6cc7cc(C(=O)P(=O)(O)O)ccc7[nH]6)C(=O)N54)c3Cl)cc21 (some centres unmarked)
Output: 100 to 1000 nM

Task: For CC(C)S(=O)(=O)c1ccc(CNC(=O)[C@H](CCC(N)=O)NC(=O)[C@@H]2CC[C@@H]3CCN(C(=O)C[C@H]4CC[C@@H](Cc5ccc6c(c5)n(C)c(=O)n6C5CCC(=O)NC5=O)CC4)C[C@H](NC(=O)c4cc5cc(C(=O)P(=O)(O)O)ccc5[nH]4)C(=O)N32)cc1 (some centres unmarked) then?
Output: 10 to 100 nM

Task: Same question for CC(=O)N1CC[C@H]2CC[C@@H](C(=O)N[C@@H](CCC(N)=O)COc3cc(F)cc(CCCC(=O)N[C@H](C(=O)N4C[C@H](O)C[C@H]4C(=O)N[C@@H](C)c4ccc(-c5scnc5C)cc4)C(C)(C)C)c3F)N2C(=O)[C@@H](NC(=O)c2cc3cc(C(=O)P(=O)(O)O)ccc3[nH]2)C1 please.
Output: < 10 nM

Task: Field entry: Cc1ncsc1-c1ccc([C@H](C)NC(=O)[C@@H]2C[C@@H](O)CN2C(=O)[C@@H](NC(=O)CCCc2cccc(OC[C@H](CCC(N)=O)NC(=O)[C@@H]3CCCN3C(=O)[C@@H](NC(=O)c3cc4cc(C(=O)P(=O)(O)O)ccc4[nH]3)C(C)C)c2Cl)C(C)(C)C)cc1
Output: 10 to 100 nM

Task: Next up: Cc1ncsc1-c1ccc([C@H](C)NC(=O)[C@@H]2C[C@@H](O)CN2C(=O)[C@@H](NC(=O)CCCCCc2cccc(OC[C@H](CCC(N)=O)NC(=O)[C@@H]3CC[C@@H]4CCN(C(=O)C[C@H]5CC[C@@H](Cc6ccc7c(c6)n(C)c(=O)n7C6CCC(=O)NC6=O)CC5)C[C@H](NC(=O)c5cc6cc(C(=O)P(=O)(O)O)ccc6[nH]5)C(=O)N43)c2F)C(C)(C)C)cc1 (some centres unmarked)
Output: 10 to 100 nM

Task: Query Cn1c(=O)n(C2CCC(=O)NC2=O)c2ccc(C[C@H]3CC[C@@H](CC(=O)N4CC[C@H]5CC[C@@H](C(=O)N[C@@H](CCC(N)=O)COc6cccc(S(C)(=O)=O)c6)N5C(=O)[C@@H](NC(=O)c5cc6cc(C(=O)P(=O)(O)O)ccc6[nH]5)C4)CC3)cc21 (some centres unmarked) next
Output: 10 to 100 nM

Task: Next: Cn1c(=O)n(C2CCC(=O)NC2=O)c2ccc(CCCCc3cccc(OC[C@H](CCC(N)=O)NC(=O)[C@@H]4CC[C@@H]5CCCC[C@H](NC(=O)c6cc7cc(C(=O)P(=O)(O)O)ccc7[nH]6)C(=O)N54)c3Cl)cc21 (some centres unmarked)
Output: > 1000 nM

Task: What about this compound? CNC(=O)N1CC[C@H]2CC[C@@H](C(=O)N[C@@H](CCC(N)=O)COc3cccc(CCCC(=O)N[C@H](C(=O)N4C[C@H](O)C[C@H]4C(=O)N[C@@H](C)c4ccc(-c5scnc5C)cc4)C(C)(C)C)c3Cl)N2C(=O)[C@@H](NC(=O)c2cc3cc(C(F)(F)P(=O)(O)O)ccc3s2)C1
Output: > 1000 nM

Task: Also Cc1cc(CCCCCC(=O)N[C@H](C(=O)N2C[C@H](O)C[C@H]2C(=O)N[C@@H](C)c2ccc(-c3scnc3C)cc2)C(C)(C)C)c(F)c(OC[C@H](CCC(N)=O)NC(=O)[C@@H]2CC[C@@H]3CCCC[C@H](NC(=O)c4cc5cc(C(=O)P(=O)(O)O)ccc5[nH]4)C(=O)N32)c1 , if possible.
Output: < 10 nM

Task: And for Cn1c(=O)n(C2CCC(=O)NC2=O)c2ccc(CC[C@H]3CC[C@@H](C(=O)N4CC[C@H]5CC[C@@H](C(=O)N[C@@H](CCC(N)=O)C(=O)NCc6ccc(S(C)(=O)=O)cc6)N5C(=O)[C@@H](NC(=O)c5cc6cc(C(=O)P(=O)(O)O)ccc6[nH]5)C4)CC3)cc21 (some centres unmarked) ?
Output: 10 to 100 nM

Task: Okay, and CNC(=O)[C@@H]1Cc2cc(CCCCCCc3ccc4c(c3)n(C)c(=O)n4C3CCC(=O)NC3=O)cc3c2N1C(=O)[C@@H](NC(=O)c1cc2cc(C(=O)P(=O)(O)O)ccc2[nH]1)CC3 (some centres unmarked) ?
Output: > 1000 nM
